Experiment: chemical genetic growth profiling, strain panel (AID 1159580);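 note: tested at 20 µM; growth read once vehicle control cultures reached saturation at 30 °C; lower values mean less growth of the strain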
Conditions: S. cerevisiae deletion strains, growth OD, locus YJL154C, strain vps35
Out of some 5,500 compounds screened, about 2,000 (36%) were called active. Not shown: some 18% with an inconclusive outcome. Cut-off read from the data, not from the text of the source: active = normalized growth mostly below about 0.91 (no sharp cut-off); inconclusive = no clear call, values can overlap the other calls; inactive = mostly above about 0.92. The list shows a part of the results.
Form entry, call: pick from True for active, False for inactive

Recorded results for 5 compounds are shown here.
{"columns": ["Compound", "Class name"],
 "data": [
  ["CCCCC(=O)O[C@]1(C(=O)CO)CCC2C3CCC4=CC(=O)CC[C@]4(C)C3[C@@H](O)C[C@@]21C (stereo not given in full)", "False"],
  ["CN(C)C(=O)Oc1ccc[n+](C)c1", "False"],
  ["CC(=O)Oc1c2c(c3c(c1CC=C(C)C)O[C@]14C(=C[C@@H]5CC1C(C)(C)OC4(C/C=C(\\C)C(=O)O)C5=O)C3=O)OC(C)(CCC=C(C)C)C=C2 (stereo not given in full)", "False"],
  ["COc1cc(C)c2c(=O)cc(-c3ccccc3)oc2c1", "False"],
  ["CN1CCC[C@@H]1CCO[C@](C)(c1ccccc1)c1ccc(Cl)cc1", "False"]
]}

Here is another compound to look at.
Record request — test call for CN(C)CCC(c1ccccc1)c1ccccn1 (stereo not given) False
